Tested on: Pseudomonas aeruginosa
test-protocol: Antibacterial activity against Pseudomonas aeruginosa 264-101354 assessed as reduction in bacterial growth incubated for 18 hrs by broth microdilution assay
Assay type: functional
What MIC was measured for each of the following?
Please format your answer as a value with the unit trailing.

Sample records with MIC:
NC[C@H]1O[C@H](O[C@H]2[C@H](O)[C@@H](O[C@H]3O[C@H](CO)[C@@H](O)[C@H](N)[C@H]3O)[C@H](N)C[C@@H]2N)[C@H](N)C[C@@H]1O
128 µg/mL
CO[C@H]1/C=C/O[C@@]2(C)Oc3c(C)c(O)c4c(O)c(c(/C=N/N5CCN(Cc6cn(CCCCCCO[C@@H]7[C@@H](O[C@H]8O[C@H](CO)[C@@H](O)[C@H](N)[C@H]8O)[C@H](N)C[C@H](N)[C@H]7O[C@H]7O[C@H](CN)[C@@H](O)C[C@H]7N)nn6)CC5)c(O)c4c3C2=O)NC(=O)/C(C)=C\C=C\[C@H](C)[C@H](O)[C@@H](C)[C@@H](O)[C@@H](C)[C@H](OC(C)=O)[C@@H]1C.Cl.Cl.Cl.Cl.Cl
256 µg/mL
CO[C@H]1/C=C/O[C@@]2(C)Oc3c(C)c(O)c4c(O)c(c(/C=N/N5CCN(Cc6cn(CCCCCCCCCCCCO[C@@H]7[C@@H](O[C@H]8O[C@H](CO)[C@@H](O)[C@H](N)[C@H]8O)[C@H](N)C[C@H](N)[C@H]7O[C@H]7O[C@H](CN)[C@@H](O)C[C@H]7N)nn6)CC5)c(O)c4c3C2=O)NC(=O)/C(C)=C\C=C\[C@H](C)[C@H](O)[C@@H](C)[C@@H](O)[C@@H](C)[C@H](OC(C)=O)[C@@H]1C.O=C(O)C(F)(F)F.O=C(O)C(F)(F)F.O=C(O)C(F)(F)F.O=C(O)C(F)(F)F.O=C(O)C(F)(F)F
256 µg/mL

Each compound below has a recorded value; state its MIC.
1. CO[C@H]1/C=C/O[C@@]2(C)Oc3c(C)c(O)c4c(O)c(c(/C=N/N5CCN(C)CC5)c(O)c4c3C2=O)NC(=O)/C(C)=C\C=C\[C@H](C)[C@H](O)[C@@H](C)[C@@H](O)[C@@H](C)[C@H](OC(C)=O)[C@@H]1C
2. CO[C@H]1/C=C/O[C@@]2(C)Oc3c(C)c(O)c4c(O)c(c(/C=N/N5CCN(Cc6cn(CCCCO[C@@H]7[C@@H](O[C@H]8O[C@H](CO)[C@@H](O)[C@H](N)[C@H]8O)[C@H](N)C[C@H](N)[C@H]7O[C@H]7O[C@H](CN)[C@@H](O)C[C@H]7N)nn6)CC5)c(O)c4c3C2=O)NC(=O)/C(C)=C\C=C\[C@H](C)[C@H](O)[C@@H](C)[C@@H](O)[C@@H](C)[C@H](OC(C)=O)[C@@H]1C.O=C(O)C(F)(F)F.O=C(O)C(F)(F)F.O=C(O)C(F)(F)F.O=C(O)C(F)(F)F.O=C(O)C(F)(F)F

Response line:
1. 16 µg/mL
2. 256 µg/mL
